The entries below come with measured Bliss interaction score values attached.
Test system: S. aureus DSM 20231;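 note: first quartile when negative (synergy) and third quartile when positive (antagonism)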
Assay: Bliss interaction score (quartile over a dose matrix) (fitness difference); higher = more antagonism (negative = synergy)

>>> reading("O=C(O)[C@H]1/C(=C/CO)O[C@@H]2CC(=O)N21 [Clavulanic] + CN(C)c1cc(NC(=O)CNC(C)(C)C)c(O)c2c1C[C@H]1C[C@H]3[C@H](N(C)C)C(O)=C(C(N)=O)C(=O)[C@@]3(O)C(O)=C1C2=O [Tigecycline]")
0.0703

Task: Bench note: what Bliss interaction score did O=C(O)[C@H]1/C(=C/CO)O[C@@H]2CC(=O)N21 [Clavulanic] + O=C(O[C@@H]1Cc2c(O)cc(O)cc2O[C@@H]1c1cc(O)c(O)c(O)c1)c1cc(O)c(O)c(O)c1 [EGCG] show?
Result: 0.0689

Task: Bench note: what Bliss interaction score did Oc1cc(Cl)ccc1Oc1ccc(Cl)cc1Cl [Triclosan] + CC1=C\[C@@H](O)CC(=O)Cc2nc(co2)C(=O)N2CCC=C2C(=O)O[C@H](C(C)C)[C@H](C)/C=C/C(=O)NC\C=C\1 show?
Result: 0.108

Task: Bench note: what Bliss interaction score did Cn1c2cccc(=O)c-2nc2ccccc21 [Pyocyanin] + CC[C@H]1OC(=O)[C@H](C)C(=O)[C@H](C)[C@@H](O[C@@H]2O[C@H](C)C[C@H](N(C)C)[C@H]2O)[C@](C)(OC)C[C@@H](C)C(=O)[C@H](C)[C@H]2N(CCCCn3cnc(-c4cccnc4)c3)C(=O)O[C@]12C [Telithromycin] show?
Result: 0.0313

Task: Bench note: what Bliss interaction score did CC1=C(C(=O)O)N2C(=O)[C@@H](NC(=O)[C@H](N)c3ccccc3)[C@H]2SC1 [Cephalexin] + CN[C@@H]1[C@H](O)[C@H](NC)[C@H]2O[C@@]3(O)C(=O)C[C@@H](C)O[C@H]3O[C@@H]2[C@H]1O [Spectinomycin] show?
Result: 0.0503

Task: Bench note: what Bliss interaction score did CC[C@H]1OC(=O)[C@H](C)[C@@H](O[C@H]2C[C@@](C)(OC)[C@@H](O)[C@H](C)O2)[C@H](C)[C@@H](O[C@@H]2O[C@H](C)C[C@H](N(C)C)[C@H]2O)[C@](C)(O)C[C@@H](C)CN(C)[C@H](C)[C@@H](O)[C@]1(C)O [Azithromycin] + CC1(C)S[C@@H]2[C@H](NC(=O)Cc3ccccc3)C(=O)N2[C@H]1C(=O)O [PenicillinG] show?
Result: -0.0514

Task: Bench note: what Bliss interaction score did C[n+]1ccc(-c2cc[n+](C)cc2)cc1 [Paraquat] + CO[C@H]1/C=C/O[C@@]2(C)Oc3c(C)c(O)c4c(O)c(c(/C=N/N5CCN(C)CC5)c(O)c4c3C2=O)NC(=O)/C(C)=C\C=C\[C@H](C)[C@H](O)[C@@H](C)[C@@H](O)[C@@H](C)[C@H](OC(C)=O)[C@@H]1C [Rifampicin] show?
Result: 0.0593

Task: Bench note: what Bliss interaction score did Clc1ccc(COC(Cn2ccnc2)c2ccc(Cl)cc2Cl)c(Cl)c1 (centres undefined) [Miconazole] + CN[C@@H]1[C@H](O[C@H]2[C@H](O[C@H]3[C@H](O)[C@@H](O)[C@H](N=C(N)N)[C@@H](O)[C@@H]3N=C(N)N)O[C@@H](C)[C@]2(O)C=O)O[C@@H](CO)[C@H](O)[C@H]1O [Streptomycin] show?
Result: 0.0476

Task: Bench note: what Bliss interaction score did Clc1ccc(COC(Cn2ccnc2)c2ccc(Cl)cc2Cl)c(Cl)c1 (centres undefined) [Miconazole] + CC[C@H]1OC(=O)[C@H](C)C(=O)[C@H](C)[C@@H](O[C@@H]2O[C@H](C)C[C@H](N(C)C)[C@H]2O)[C@](C)(OC)C[C@@H](C)C(=O)[C@H](C)[C@H]2N(CCCCn3cnc(-c4cccnc4)c3)C(=O)O[C@]12C [Telithromycin] show?
Result: 0.04

Values from the supplement of paper PMC10627819
